B1: library; numbered along this chain (parent)
chain: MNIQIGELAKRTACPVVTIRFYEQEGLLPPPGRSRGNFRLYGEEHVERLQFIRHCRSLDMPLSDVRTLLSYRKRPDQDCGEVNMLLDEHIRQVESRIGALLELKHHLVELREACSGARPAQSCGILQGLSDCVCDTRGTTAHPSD

Variants of: B1
Protocol text: sfGFP reporter fluorescence (15 h) (µM FITC); higher = stronger transcriptional activation
Condition label: library round: Round 0; ligand: 1 µM Pb
// reported sfGFP reporter fluorescence per item

R111E: 0.0684
T136A: 0.0696

Here is the next item to consider.
[in] Requested read-out: sfGFP reporter fluorescence. Entry: L126A
[out] 0.0682
